Recorded measurements of Binding of serum 1b to looped/cyclic peptides of protein X1 of SARS-CoV Urbani, one per entry
# Tested on: antibodies in sera from SARS patients (sera 1a, 1b, 2, 6, 37, 62, London, SARS-yellow, SARS-green)
# Format: binding, human
recorded.metric: Binding of serum 1b to looped/cyclic peptides of protein X1 of SARS-CoV Urbani

- TQITTDTGIENATFF: 0.3
- HGYFTEVYYQLESTQ: 0.4
- TDTGIENATFFIFNK: 0.5
- IPYNSVTDTIVVTEG: 0.4
- QLESTQITTDTGIEN: 0.3
- IVVTEGDGISTPKLK: 0.2
- SVTDTIVVTEGDGIS: 0.2
- ITTDTGIENATFFIF: 0.6
- EGDGISTPKLKEDYQ: 0.3
- YVVVHGYFTEVYYQL: 0.5
